pIC50 overview
Target: HLA-B0702 (Homo sapiens, UniProt P01889)
Construct: endogenous in cells
Assay: Competition-based cellular peptide binding assay, HLA-B0702
Conditions: Table 1; mild-acid-treated B-LCLs, 150 nM fluorescent reference peptide […], overnight 4°C, flow cytometry; mean of two independent experiments
pIC50: −log10 of the molar value. Ends that are not written are not given here.
OBSERVED PROPERTY: pIC50

1. SRGALYTGFSIL [Peptide 1]    5.86
2. RMATPLLMQALPM [Peptide 3]    6.44
3. LLAGQATT [Peptide 2]    4.39
4. LPMGALPQGPM [Peptide 4]    6.39
